# System: BT-549 breast
# testMethodNotes: NCI tumour cell line growth inhibition, 48 h
resultType: TGI (µM)
Give just the number in µM; leave the unit off.

Below, 2 compounds whose answers are already recorded.
C[N+]12C=CC=C1C(N1CCCC1)c1scc(-c3ccc(F)cc3)c12 (stereo not given) = 88
O=C1c2c(Cl)c(Cl)c(Cl)c(Cl)c2C(=O)C2(Cl)CC=CCC12Cl (stereo not given) = 3.38

Switching to the query record.
Which TGI value is on record for `COC(=O)c1oc2c(C(=O)/C=C/c3ccc(OC)cc3)c(OCCN3CCOCC3)ccc2c1C` ?
7.91

====

# System: NCI-H23 lung
# testMethodNotes: NCI tumour cell line growth inhibition, 48 h
resultType: TGI

Below are worked cases with known answers.
CCCCCCCCCCCCCCCCN(CC)CC = 9 µM
COC(=O)C(=O)C(/C(=N/N)C(=O)Nc1ccccc1C(N)=O)c1nc2ccc([N+](=O)[O-])cc2[nH]c1=O (centres undefined) = > 100 µM
Cc1ccc(C(=O)Oc2ccc(/C=C3\CCC/C(=C\c4ccc(OC(=O)c5ccc(C)cc5)cc4)C3=O)cc2)cc1 = > 100 µM

Item under review: `COc1ccc(OC)c(/C=C/c2ccnc3ccccc23)c1` . Reported TGI?
5.72 µM

For the compound shown here, Cc1ccccc1C(C(=O)NC1CCCCC1)N(C(=O)CNc1ncccc1F)c1cccc(F)c1 (centres undefined) , give the reported TGI.
> 100 µM

Consider the compound `COc1cc(CNc2cnc3ccc(N)cc3n2)cc(OC)c1OC` and give its measured TGI.
> 100 µM

What does the data say about its TGI? Entry: `O=C(NCCCN(CCCCN(CCCNC(=O)c1cc(S(=O)(=O)O)cc(O)c1O)C(=O)c1cc(S(=O)(=O)O)cc(O)c1O)C(=O)c1cc(S(=O)(=O)O)cc(O)c1O)c1cc(S(=O)(=O)O)cc(O)c1O`
> 100 µM

// returns reported TGI for input `O=c1cccc2n1CC1CNC[C@H]2C1`
> 100 µM

Which TGI is reported for this compound? `C#CCOCn1cc(C)c(=O)[nH]c1=O`
> 100 µM
